These data points were gathered from patent US20260216242A1.

# measurement_target: T1, ALPI His homodimer (Homo sapiens, UniProt P09923)
# T1 sequence (P09923 with tags, fused parts or gaps): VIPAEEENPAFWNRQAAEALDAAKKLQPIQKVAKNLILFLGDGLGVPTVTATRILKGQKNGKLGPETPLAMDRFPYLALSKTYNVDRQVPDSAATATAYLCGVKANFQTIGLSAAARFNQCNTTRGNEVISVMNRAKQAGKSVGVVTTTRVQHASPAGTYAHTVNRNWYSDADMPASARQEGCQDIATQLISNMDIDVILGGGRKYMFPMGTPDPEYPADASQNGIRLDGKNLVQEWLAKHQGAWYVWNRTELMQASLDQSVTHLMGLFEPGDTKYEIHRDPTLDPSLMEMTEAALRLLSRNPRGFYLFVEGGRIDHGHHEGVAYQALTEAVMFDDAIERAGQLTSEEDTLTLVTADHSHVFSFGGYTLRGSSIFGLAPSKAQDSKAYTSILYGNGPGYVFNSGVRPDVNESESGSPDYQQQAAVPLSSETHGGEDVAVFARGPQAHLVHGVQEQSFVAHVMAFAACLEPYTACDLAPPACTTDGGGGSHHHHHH
# protocol_text: ELISA binding to ALPI
# study_conditions: 500 ng purified VHH

molecule	ELISA hALPI
A05: ALPP/ALPPL2 targeting VHH domain, SEQ ID NO: 16; tested C-terminally His-tagged (protein, C-terminal His tag, tested C-terminally His-tagged) VHH: QVQLVESGGGLVQAGASLTLSCAASGFTFNTRSIVWFRQAPGKEREAVSCISKVAGSTYYGDSVQGRFSSSTDNAKNTVSLQMNSLKPEDTAVYTCAASFAPNCYGWSVAANMEYWGEGTMVTVSS	No Binding
C05: ALPP targeting VHH domain, SEQ ID NO: 23 (protein) VHH: QVQLVESGGGLVQAGGSLRLSCAASRRSFSEYAMGWFRQAPGKEREFVAAIGWSGVIEYADSVKGRFTISRDNAKDTVYLQMNSLKPEDTAVYYCAAGLGIRVVSQTPAYWGQGTQVTVSS	No Binding
